// data source = patent US9206173B2

biological target: human GPR10 (Homo sapiens (Human)); experiment: Inhibitory activity on binding of [3H]-PrRP to GPR10 (HEK 293 cell membrane fraction); details: [3H]-PrRP 1 nM, human GPR10-expressing HEK 293 cell membrane fraction; Ki from IC50 by Cheng-Prussoff formula
Counter-ions that a name gives are not always drawn.
Please respond with reported pKi for every item in the list.
Lab note: report pKi as minus log10 of the concentration in molar units, number only.

-- ask Request: pKi, test system human GPR10 (Homo sapiens (Human)), entry "COn1c(N[C@@H](C)c2ccc(C(F)(F)F)cc2)nc2c(c1=O)CN(C(=O)c1cc3ccccc3s1)CC2"
-- reply 7.82

-- ask Request: pKi, test system human GPR10 (Homo sapiens (Human)), entry "C#CCCn1c(N[C@@H](C)c2ccc(C(F)(F)F)cc2)nc2c(c1=O)CN(C(=O)c1nc3ccccc3[nH]1)CC2"
-- reply 6.61

-- ask Request: pKi, test system human GPR10 (Homo sapiens (Human)), entry C[C@H](Nc1nc2c(c(=O)n1N(C)C)CN(C(=O)c1c(F)cc(F)cc1F)CC2)c1ccc(C(F)(F)F)cc1 [Example 2484, hydrochloride]
-- reply 8.22

-- ask Request: pKi, test system human GPR10 (Homo sapiens (Human)), entry C[C@H](Nc1nc2c(c(=O)n1N(C)C)CN(C(=O)c1ccc(Cl)cc1)CC2)c1ccc(Cl)cc1.Cl [Example 8, hydrochloride]
-- reply 7.60

====

Target: human GPR10 (Homo sapiens (Human), UniProt P49683)
Sequence (P49683 whole entry): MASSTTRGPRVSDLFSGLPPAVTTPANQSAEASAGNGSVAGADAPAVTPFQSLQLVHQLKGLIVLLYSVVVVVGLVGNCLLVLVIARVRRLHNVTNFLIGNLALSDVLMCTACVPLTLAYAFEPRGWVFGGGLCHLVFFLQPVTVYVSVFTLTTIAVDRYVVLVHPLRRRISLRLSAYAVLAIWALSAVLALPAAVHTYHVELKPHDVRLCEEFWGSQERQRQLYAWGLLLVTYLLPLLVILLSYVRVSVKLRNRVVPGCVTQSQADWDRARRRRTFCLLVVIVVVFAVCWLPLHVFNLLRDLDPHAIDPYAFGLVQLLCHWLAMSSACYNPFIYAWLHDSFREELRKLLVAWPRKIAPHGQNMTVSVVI
Assay: Inhibitory activity on binding of [3H]-PrRP to GPR10 (HEK 293 cell membrane fraction)
Conditions: [3H]-PrRP 1 nM, human GPR10-expressing HEK 293 cell membrane fraction; Ki from IC50 by Cheng-Prussoff formula
Method: Inhibitory Activity on Binding of [^3H]-PrRP to GPR10 […] The binding inhibition rate was calculated based on calculating formula: 100−(radio activity when a compound is added−radio activity of non-specific binding)÷(radio activity when a solvent is added−radio activity of non-specific binding)×100. An IC50 value was calculated based on the concentration dependent reaction using a non-linear analysis program and a Ki value was calculated using Cheng-Prussoff formula.
The label condition met is reserved for Ki strictly under 8 nM; condition not met covers values equal to or above it.

-- ask State whether 8 nM exceeds Ki recorded for COn1c(N[C@@H](C)c2ccc(C(F)(F)F)cc2)nc2c(c1=O)CN(C(=O)c1ccc(C)c(C)c1)CC2 [Example 2452] .
-- reply condition met

-- ask State whether 8 nM exceeds Ki recorded for C#CCn1c(N[C@@H](C)c2ccc(C(F)(F)F)cc2)nc2c(c1=O)CN(C(=O)c1c(F)cccc1F)CC2 [Example 2478] .
-- reply condition not met

-- ask State whether 8 nM exceeds Ki recorded for COn1c(N[C@@H](C)c2ccc(C(F)(F)F)cc2)nc2c(c1=O)CN(C(=O)c1ccc(Cl)o1)CC2 [Example 2454] .
-- reply condition not met

-- ask State whether 8 nM exceeds Ki recorded for CCOn1c(N[C@H](C)c2ccc(C(F)(F)F)cc2)nc2c(c1=O)CN(C(=O)c1ccc(C#N)cc1F)CC2 [Example 95] .
-- reply condition met

-- ask State whether 8 nM exceeds Ki recorded for COn1c(N[C@@H](C)c2ccc(C(F)(F)F)cc2)nc2c(c1=O)CN(C(=O)c1ccc(Cl)s1)CC2 [Example 2405] .
-- reply condition not met

====

molecular target: human GPR10 (Homo sapiens (Human)); experiment: Antagonistic activity on PrRP-induced intracellular calcium mobilization in human GPR10-expressing HEK293 cells; conditions: PrRP 1 nM-induced intracellular calcium mobilization, Fluo-8
pIC50: −log10 of the molar value. Structures can show the parent of a compound that is named as a salt.
Threshold check on pIC50: at or above 6 gives 1, strictly below gives -1.

-- ask Reported pIC50 reaches at least 6 for CC#CCn1c(N[C@@H](C)c2ccc(C(F)(F)F)cc2)nc2c(c1=O)CN(C(=O)c1cnc3ccccc3c1)CC2 [Example 2446] ?
-- reply -1

-- ask Reported pIC50 reaches at least 6 for COn1c(N[C@@H](C)c2ccc(C(F)(F)F)cc2)nc2c(c1=O)CN(C(=O)CCc1ccc(Cl)cc1)CC2 [Example 2391] ?
-- reply -1

-- ask Reported pIC50 reaches at least 6 for COn1c(NC(c2ccc(Cl)cc2)C(C)C)nc2c(c1=O)CN(C(=O)c1ccc(Cl)cc1)CC2 (centres unmarked) [Example 2441] ?
-- reply -1

-- ask Reported pIC50 reaches at least 6 for C[C@@H](Nc1nc2c(c(=O)n1N1CCCC1)CN(C(=O)c1ccc(C#N)cc1F)CC2)c1ccc(C(F)(F)F)cc1 [Example 166] ?
-- reply 1

-- ask Reported pIC50 reaches at least 6 for CC#CCn1c(N[C@@H](C)c2ccc(C(F)(F)F)cc2)nc2c(c1=O)CN(C(=O)c1ccc(C#N)cc1F)CC2 [Example 2406, hydrochloride] ?
-- reply 1

-- ask Reported pIC50 reaches at least 6 for C#CCCn1c(N[C@@H](C)c2ccc(C(F)(F)F)cc2)nc2c(c1=O)CN(C(=O)c1ccc(C#N)cc1F)CC2 [Example 2435] ?
-- reply 1

-- ask Reported pIC50 reaches at least 6 for CCOn1c(N[C@H](C)c2ccc(C(F)(F)F)cc2)nc2c(c1=O)CN(C(=O)c1ccc(C#N)cc1F)CC2 [Example 95] ?
-- reply 1

-- ask Reported pIC50 reaches at least 6 for COn1c(N[C@@H](C)c2ccc(C(F)(F)F)cc2)nc2c(c1=O)CN(C(=O)c1ccc(C#N)cc1F)CC2 [Example 11, hydrochloride] ?
-- reply 1

-- ask Reported pIC50 reaches at least 6 for CCC(Nc1nc2c(c(=O)n1OC)CN(C(=O)c1ccc(Cl)cc1)CC2)c1ccc(Cl)cc1.Cl (centres unmarked) [Example 2421, hydrochloride] ?
-- reply -1

-- ask Reported pIC50 reaches at least 6 for COn1c(N[C@@H](C)c2ccc(C(F)(F)F)cc2)nc2c(c1=O)CN(C(=O)c1ccc(Cl)s1)CC2 [Example 2405] ?
-- reply -1

-- ask Reported pIC50 reaches at least 6 for C[C@H](Nc1nc2c(c(=O)n1N(C)C)CN(C(=O)c1ccc(Cl)cc1)CC2)c1ccc(C(F)(F)F)cc1.Cl [Example 6, hydrochloride] ?
-- reply 1

====

molecular target: human GPR10 (Homo sapiens (Human)); assay: Inhibitory activity on binding of [3H]-PrRP to GPR10 (HEK 293 cell membrane fraction); conditions: [3H]-PrRP 1 nM, human GPR10-expressing HEK 293 cell membrane fraction; Ki from IC50 by Cheng-Prussoff formula
Counter-ions that a name gives are not always drawn.
Please respond with reported pKi for every item in the list.
Lab note: report pKi as minus log10 of the concentration in molar units, number only.

-- ask Fill in: pKi of "CC[C@H](Nc1nc2c(c(=O)n1OC)CN(C(=O)c1ccc(C#N)cc1F)CC2)c1ccc(C(F)(F)F)cc1" is ___
-- reply 8.10

-- ask Fill in: pKi of "C#CCCn1c(N[C@@H](C)c2ccc(C(F)(F)F)cc2)nc2c(c1=O)CN(C(=O)c1ccc(C#N)cc1)CC2" is ___
-- reply 8.30

-- ask Fill in: pKi of C#CCn1c(N[C@@H](C)c2ccc(C(F)(F)F)cc2)nc2c(c1=O)CN(C(=O)c1ccc(C#N)cc1F)CC2 [Example 1, hydrochloride] is ___
-- reply 8.30

-- ask Fill in: pKi of "COn1c(N[C@@H](C)C2CCCCC2)nc2c(c1=O)CN(C(=O)c1ccc(Cl)cc1)CC2" is ___
-- reply 6.97

-- ask Fill in: pKi of "C#CCn1c(N[C@@H](C)c2ccc(Cl)cc2)nc2c(c1=O)CN(C(=O)c1ccc(Cl)cc1)CC2" is ___
-- reply 7.38

-- ask Fill in: pKi of "COn1c(N[C@@H](C)c2ccc(Cl)cc2)nc2c(c1=O)CN(C(=O)COc1ccc(Cl)cc1)CC2" is ___
-- reply 7.82

-- ask Fill in: pKi of "COn1c(N[C@@H](C)c2ccc(C(F)(F)F)cc2)nc2c(c1=O)CN(C(=O)c1cc(-c3cccs3)n(C)n1)CC2" is ___
-- reply 7.70

====

Please respond with reported IC50 for every item in the list.
molecular target: human GPR10 (Homo sapiens (Human)); experiment: Antagonistic activity on PrRP-induced intracellular calcium mobilization in human GPR10-expressing HEK293 cells; conditions: PrRP 1 nM-induced intracellular calcium mobilization, Fluo-8
Structures can show the parent of a compound that is named as a salt.
Expressed in nM, but write only the number.

-- ask Request: IC50, test system human GPR10 (Homo sapiens (Human)), entry CC#CCn1c(N[C@@H](C)c2ccc(C(F)(F)F)cc2)nc2c(c1=O)CN(C(=O)c1ccc3cccnc3c1)CC2 [Example 2417, dihydrochloride]
-- reply 780

-- ask Request: IC50, test system human GPR10 (Homo sapiens (Human)), entry "COn1c(N[C@@H](C)c2ccc(C(F)(F)F)cc2)nc2c(c1=O)CN(C(=O)CSc1ccc(Cl)cc1)CC2"
-- reply 1140

-- ask Request: IC50, test system human GPR10 (Homo sapiens (Human)), entry COn1c(N[C@@H](C)c2ccc(C(F)(F)F)cc2)nc2c(c1=O)CN(C(=O)c1ccc(Cl)cc1)CC2 [Example 10, hydrochloride]
-- reply 140
